System: NCI-H460 lung
Assay: NCI-60 one-dose screen, 48 h
Details: 10 µM unless noted
This is part of a sample that, as a whole, favours compounds with a hit. Of some 83,000 tested, about 20% had one in any assay. Active and inactive are the calls of the source. Rule for the calls: active = growth percent below 10; inactive = the rest.
Bench note: report the call from active, inactive

Please share the test call associated with COc1ccc(C/C(C)=C(\c2ccc(OCCN3CCCCCC3)cc2)c2ccc(OC(=O)C3CCCCC3)cc2)cc1 .
inactive

Please share the test call associated with O=C(CN1CCN(c2cc3c(cc2F)c(=O)c(C(=O)N/N=C/c2ccccc2)cn3C2CC2)CC1)N/N=C\c1ccccc1 .
inactive

Please share the test call associated with CCN(CC)Cc1cc(Nc2c3ccc(Cl)cc3nc3c(C)cccc23)ccc1O .
active

Please share the test call associated with CN(C)c1ccc(/C=C(\C#N)c2nc3ccccc3s2)cc1 .
inactive

Please share the test call associated with COc1cccc(/C=C2/C(=O)N(Cc3ccco3)SC2=S)c1OC .
inactive

Please share the test call associated with COc1cc(/C=N\NC(=O)CN2CCN(c3cc4c(cc3F)c(=O)c(C(=O)N/N=C/c3ccc(O)c(OC)c3)cn4C3CC3)CC2)ccc1O .
inactive

Please share the test call associated with CN(C)c1ccc(C2Nc3ccccc3-n3cccc32)cc1 (centres undefined) .
inactive

Please share the test call associated with COc1ccc(CN(c2ccc(C)cc2)C2OC(=O)c3ccccc32)cc1OC (centres undefined) .
inactive

Please share the test call associated with C=C1CC[C@@H]2[C@](C)(COC(C)=O)[C@H](OC(C)=O)CC[C@@]2(C)[C@@H]1CC(Nc1ccc(S(=O)(=O)Nc2ccc(Cl)nn2)cc1)C1=CCOC1=O (some centres undefined) .
inactive
